Tested on: ATP;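 further: ATP exposure 15 min at 22 °C before imaging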
Assay: switch fluorescence ratio, 500 uM ATP over buffer (Cy3 cluster intensity, sum of 5 cycles each) (fold (ratio)); higher = stronger signal-on switching upon ATP binding; sequences stand for … in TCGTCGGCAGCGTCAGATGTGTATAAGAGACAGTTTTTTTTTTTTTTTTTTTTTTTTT…TC
Conditions: aptamer strand: ATP DNA aptamer (quencher-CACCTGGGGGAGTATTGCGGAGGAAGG + anchor), 100 nM annealed; ATP concentration: 500 uM
QUANTITY_KIND: switch fluorescence ratio
Note: the reply should be a number with no unit written.

Example entries begin here.
TTTGTCGGGT = 0.994
ATGCATTTTG = 0.97
CGGATATTGC = 1
TCATTATGTG = 0.98
GGTATTTTAA = 1.04
AGTCTGGATC = 0.996

Prompt line: I am curious: what switch fluorescence ratio value has been reported for TTGGAAGCTT ?
Response line: 1.23

Prompt line: # lookup: switch fluorescence ratio of AATTTATTTG
Response line: 1.01

---

Readings of switch fluorescence ratio for the listed sequences
Tested on: ATP;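 further: ATP exposure 15 min at 22 °C before imaging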
Test: switch fluorescence ratio, 500 uM ATP over buffer (Cy3 cluster intensity, sum of 5 cycles each) (fold (ratio)); higher = stronger signal-on switching upon ATP binding; sequences stand for … in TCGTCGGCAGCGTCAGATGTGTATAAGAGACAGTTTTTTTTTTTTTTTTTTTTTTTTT…TC
Details: aptamer strand: ATP DNA aptamer (quencher-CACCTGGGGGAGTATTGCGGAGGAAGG + anchor), 100 nM annealed; ATP concentration: 500 uM
Lab note: jot the number down without any unit.

Prompt line: Name the recorded switch fluorescence ratio for TATGTACGTT .
Response line: 1.04

Prompt line: // lookup switch fluorescence ratio for GAATGGGGCA
Response line: 0.978

Prompt line: Report switch fluorescence ratio for TTTTGAGATC please.
Response line: 1.04

Prompt line: // switch fluorescence ratio lookup, key: GGGGTTTGTT
Response line: 0.992

Prompt line: # switch fluorescence ratio lookup, item TAACATCGGT
Response line: 0.996

Prompt line: Name the recorded switch fluorescence ratio for TTTGTCTGGT .
Response line: 0.992

Prompt line: Look up switch fluorescence ratio for this sequence: TATGTAATTG
Response line: 0.965

Prompt line: I am curious: what switch fluorescence ratio value has been reported for TTTGGACGTC ?
Response line: 0.992

---

Test system: ATP;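 further: ATP exposure 15 min at 22 °C before imaging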
Test: switch fluorescence ratio, 500 uM ATP over buffer (Cy3 cluster intensity, sum of 5 cycles each) (fold (ratio)); higher = stronger signal-on switching upon ATP binding; sequences stand for … in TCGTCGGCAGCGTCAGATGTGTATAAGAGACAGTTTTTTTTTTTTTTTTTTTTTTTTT…TC
Conditions: aptamer strand: ATP DNA aptamer (quencher-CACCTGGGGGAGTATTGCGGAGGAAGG + anchor), 100 nM annealed; ATP concentration: 500 uM
QUANTITY_KIND: switch fluorescence ratio
# print the numeric value only

The cases that follow already have their switch fluorescence ratio on record.
ATGCTGGGTT = 0.993
CTTGGGGAGC = 0.982
GTTGACAGG = 1.02
ATAATTTTGG = 0.973
TTAAAAAGTT = 1
TGGTTCTTTT = 1.02

Prompt line: Need switch fluorescence ratio, item AGTGAGCTGA
Response line: 0.977

Prompt line: Which switch fluorescence ratio reading was recorded for the sequence AATTACGTGT ?
Response line: 1

Prompt line: Need switch fluorescence ratio, item ACTGGGGCGG
Response line: 1.02

Prompt line: So what does the record say about switch fluorescence ratio for TCAGCTCTTC ?
Response line: 0.987

Prompt line: Can you share its switch fluorescence ratio? I mean this sequence: TGCGGATATG
Response line: 0.982

Prompt line: Returns the measured switch fluorescence ratio for the input sequence. Input: TTATTAAGTT
Response line: 1.01

Prompt line: Bench note: what switch fluorescence ratio did GGAGTTGGAT show?
Response line: 0.982

Prompt line: Look up switch fluorescence ratio: CTTTAACGGT
Response line: 1

Prompt line: Sample GTGACATTAA — what was its switch fluorescence ratio?
Response line: 0.998

Prompt line: For GAGGGGAGGT , what is its reported switch fluorescence ratio?
Response line: 0.974

Prompt line: Which measured switch fluorescence ratio value corresponds to GAAAAAGAGG ?
Response line: 0.985

Prompt line: Could you tell me which switch fluorescence ratio is on file for TGAGCCGGGT ?
Response line: 1.02

Prompt line: Recorded switch fluorescence ratio for ATCTAGATTG , please?
Response line: 0.982

Prompt line: Look up switch fluorescence ratio for this sequence: GCTGTTAGTG
Response line: 0.98

Prompt line: Dear colleague, I am looking for the recorded switch fluorescence ratio of the following sequence: AATATGTTCT
Response line: 1.02

// data source = the supplement of paper PMC10126150
